- assay-explanation: Determination of pKa of formulated lipids (TNS fluorescence)
- Type: physicochemical
- condition-parameters: probe 2-(p-toluidino)-6-naphthalenesulfonic acid (TNS), 1 µM final, vesicles of cationic lipid/DSPC/CH/PEG-c-DOMG 40:10:40:10, pH 2 to 11
property-measured: pKa
API note: the answer field is a bare number with no unit suffix.

Problem: Dear colleague, I am looking for the recorded pKa of the following compound: CCCCC/C=C\C/C=C\CCCCCCCCC1(CCCCCCCC/C=C\C/C=C\CCCCC)O[C@H]2CCN(C)C[C@H]2O1 [ALNY-105]
Result: 5.6

Problem: Dear colleague, I am looking for the recorded pKa of the following compound: CCCCC/C=C\C/C=C\CCCCCCCCC1(CCCCCCCC/C=C\C/C=C\CCCCC)O[C@H]2[C@@H](OC)OC(CN(C)C)[C@H]2O1 (stereo partly shown) [ALNY-151]
Result: 5.5

Problem: Dear colleague, I am looking for the recorded pKa of the following compound: CCCCC/C=C\C/C=C\CCCCCCCCC1(CCCCCCCC/C=C\C/C=C\CCCCC)O[C@H]2CC[C@@H](CN(C)C)C[C@H]2O1 [ALNY-121]
Result: 6.6

Problem: Dear colleague, I am looking for the recorded pKa of the following compound: CCCCC/C=C\C/C=C\CCCCCCCCC1(CCCCCCCCCC)O[C@H]2C[C@H](N(C)C)C[C@H]2O1 (stereo partly shown) [ALNY-110]
Result: 6.5

Problem: Dear colleague, I am looking for the recorded pKa of the following compound: CCCCC/C=C\C/C=C\CCCCCCCCC1(CCCCCCCC/C=C\C/C=C\CCCCC)OCC2(CCN(C)CC2)O1 [ALNY-148]
Result: 6.53

Problem: Dear colleague, I am looking for the recorded pKa of the following compound: CCCCC/C=C\C/C=C\CCCCCCCCC1(CCCCCCCC/C=C\C/C=C\CCCCC)O[C@H]2CCN(C)CC[C@H]2O1 [ALNY-106]
Result: 6.85

Problem: Dear colleague, I am looking for the recorded pKa of the following compound: CCCCC/C=C\C/C=C\CCCCCCCCC(CCCCCCCC/C=C\C/C=C\CCCCC)CN(C)CCN(C)C [ALNY-141]
Result: 6.62

====

- assay-explanation: Determination of pKa of formulated lipids (TNS fluorescence)
- Type: physicochemical
- condition-parameters: probe 2-(p-toluidino)-6-naphthalenesulfonic acid (TNS), 1 µM final, vesicles of cationic lipid/DSPC/CH/PEG-c-DOMG 40:10:40:10, pH 2 to 11
property-measured: pKa
API note: the answer field is a bare number with no unit suffix.

Illustrative cases are given below, each with its answer.
CCCCC/C=C\C/C=C\CCCCCCCCC(CCCCCCCC/C=C\C/C=C\CCCCC)NC(=O)OCCCN(C)C [ALNY-192] | 7.21
CCCCC/C=C\C/C=C\CCCCCCCCC1(CCCCCCCC/C=C\C/C=C\CCCCC)OCC(CCN(C)Cc2cccnc2)O1 (stereo not shown) [ALNY-140] | 4.95
CCCCC/C=C\C/C=C\CCCCCCCCC(CCCCCCCC/C=C\C/C=C\CCCCC)ON=C(C)CCN(C)C [ALNY-149] | 5.81

Problem: Dear colleague, I am looking for the recorded pKa of the following compound: CCCCC/C=C\C/C=C\CCCCCCCCC1(CCCCCCCCCCCC)O[C@H]2C[C@H](N(C)C)C[C@H]2O1 (stereo partly shown) [ALNY-109]
Result: 6.75

// provenance: patent US20180064807A1
